Reference for the values: ChEMBL document CHEMBL4689842

System: Fibroblast
Assay: Multiplex assay against human fibroblast
Type: toxicity, cell-based
Conditions: 24 h, 1 µM, compound concentration 1 uM, replicate 1
measured.attribute: Population Healthy Nuclei (%)

[[record]]
cpd_smiles = "O=C1NC(=O)C(c2cnc3ccccn23)=C1c1cn2c3c(cc(F)cc13)CN(C(=O)N1CCCCC1)CC2"
value_observed = "36%"

[[record]]
cpd_smiles = "Cc1ccc(C(=O)Nc2cccc(C(F)(F)F)c2)cc1Nc1nc(-c2cccnc2)nc2c1cnn2C"
value_observed = "41%"

[[record]]
cpd_smiles = "O=C(Nc1ccc(-c2ccnc(Nc3ccc(N4CCOCC4)cc3)n2)cc1)[C@@H]1CCCN1"
value_observed = "52%"

[[record]]
cpd_smiles = "COc1cccc2cc(-c3nc([C@H]4CC[C@H](C(=O)O)CC4)n4ncnc(N)c34)[nH]c12"
value_observed = "50%"

[[record]]
cpd_smiles = "COc1ccc(S(=O)(=O)N(CCO)c2ccccc2CN(C)C/C=C/c2ccc(Cl)cc2)cc1.O=P(O)(O)O"
value_observed = "55%"

[[record]]
cpd_smiles = "S=C(NCCCc1c[nH]cn1)NCCCN(Cc1ccc(Cl)c(Cl)c1)c1ccc(Br)cn1"
value_observed = "48%"


* * *

Measured Growth Rate, listed per entry for reference.
System: U2OS
Test: Incucyte cell viability with U2OS; also: filed as whole numbers so only -1 and 0 and 1 occur
Format: toxicity, cell-based
Details: human, 24 h, 10 µM, compound concentration 10 uM, replicate number 1, timepoint 24 hours
measured.attribute: Growth Rate

[[record]]
cpd_smiles = "O=C(Nc1nc2cccc(-c3ccc(CN4CCS(=O)(=O)CC4)cc3)n2n1)C1CC1"
measured_attribute = "Growth Rate"
value_observed = 0

[[record]]
cpd_smiles = "C[C@]12CCC(=O)C=C1CC[C@@H]1[C@@H]2[C@@H](O)C[C@]2(C=O)[C@@H](C(=O)CO)CC[C@@H]12"
measured_attribute = "Growth Rate"
value_observed = 1

[[record]]
cpd_smiles = "C=C(c1ccc(C(=O)O)cc1)c1cc2c(cc1C)C(C)(C)CCC2(C)C"
measured_attribute = "Growth Rate"
value_observed = 1

[[record]]
cpd_smiles = "O=C(Cc1ccc(-c2ccc(OCCN3CCOCC3)cc2)cn1)NCc1ccccc1"
measured_attribute = "Growth Rate"
value_observed = 0


* * *

System: HEK-293T
Assay: Multiplex assay against HEK293T
Format: toxicity, cell-based
Conditions: human, 12 h, 10 µM, compound concentration 10 uM, replicate 2
Measured Population Membrane Permeable-Phenotype (%), listed per entry for reference.
measured.attribute: Population Membrane Permeable-Phenotype (%)

[[record]]
compound = "CN1C2CCC1CC(OC(c1ccc(F)cc1)c1ccc(F)cc1)C2.Cl (centres undefined)"
value_observed = 2

[[record]]
compound = "CCCn1c(=O)c2[nH]c(-c3cnn(Cc4cccc(C(F)(F)F)c4)c3)nc2n(CC)c1=O"
value_observed = 7

[[record]]
compound = "O=C(Nc1cccnn1)N1CCC(=Cc2cccc(Oc3ccc(C(F)(F)F)cn3)c2)CC1"
value_observed = 1

[[record]]
compound = "CN1CCN(C(=O)C(C)(C)c2ccc(C(=O)Nc3cn4cc(-c5cc(C(C)(C)C)cc(C(C)(C)C)c5)ccc4n3)cc2)CC1"
value_observed = 4

[[record]]
compound = "COc1cccc2cc(-c3nc([C@H]4CC[C@H](C(=O)O)CC4)n4ncnc(N)c34)[nH]c12"
value_observed = 0

[[record]]
compound = "CCCS(=O)(=O)Nc1ccc(F)c(C(=O)c2c[nH]c3ncc(Cl)cc23)c1F"
value_observed = 0

[[record]]
compound = "CCOc1cc(C(=O)N2CCC(N3CCN(C)CC3)CC2)ccc1Nc1ncc2c(n1)N(C1CCCC1)c1ccccc1C(=O)N2C"
value_observed = 0

[[record]]
compound = "CCn1c(=O)c(-c2ccc(-c3cncs3)cc2Cl)cc2cnc(Nc3ccc(N4CCN(C)CC4)cc3)nc21"
value_observed = 20

[[record]]
compound = "COCC(=O)NC/C=C/c1ccc2ncnc(Nc3ccc(Oc4ccc(C)nc4)c(C)c3)c2c1"
value_observed = 11

[[record]]
compound = "COc1cc2ncnc(Nc3ccc(F)c(Cl)c3)c2cc1NC(=O)/C=C/CN1CCCCC1 [DACOMITINIB ANHYDROUS]"
value_observed = 2

[[record]]
compound = "O=C1N/C(=N/c2ccccc2F)S/C1=C\\c1ccc(C(=O)O)cc1"
value_observed = 5

[[record]]
compound = "S=C(NCCCc1c[nH]cn1)NCCCN(Cc1ccc(Cl)c(Cl)c1)c1ccc(Br)cn1"
value_observed = 37

[[record]]
compound = "Cc1cn(-c2cc(NC(=O)c3ccc(C)c(Nc4nccc(-c5cccnc5)n4)c3)cc(C(F)(F)F)c2)cn1"
value_observed = 3

[[record]]
compound = "CCn1cc(-c2ccnc3[nH]c(-c4cccc(CN(C)C)c4)cc23)c(-c2ccc(NC(=O)N(C)C)cc2)n1"
value_observed = 14

[[record]]
compound = "NC(=O)c1cccc(-c2cc(Nc3ccc(OC(F)(F)F)cc3)ncn2)c1"
value_observed = 0

[[record]]
compound = "CCc1cccc(CC)c1NC(=O)c1nn(C)c2c1CCc1cnc(Nc3ccc(N4CCN(C)CC4)cc3OC)nc1-2"
value_observed = 8

[[record]]
compound = "O=C(Nc1ccc(-n2nc(-c3cccnc3)cc2C(F)(F)F)cn1)c1ccc(-c2ccccc2)c(F)c1"
value_observed = 9

[[record]]
compound = "COc1ccc(-c2ccc3c(N4CCOCC4)nc(N4C[C@@H](C)O[C@@H](C)C4)nc3n2)cc1CO"
value_observed = 4

[[record]]
compound = "CCOc1cc2ncc(C#N)c(Nc3ccc(OCc4ccccn4)c(Cl)c3)c2cc1NC(=O)/C=C/CN(C)C"
value_observed = 3

[[record]]
compound = "C=CCn1c(=O)c2cnc(Nc3ccc(N4CCN(C)CC4)cc3)nc2n1-c1cccc(C(C)(C)O)n1"
value_observed = 4

[[record]]
compound = "CN1CCC(=C2c3ccccc3CC(=O)c3sccc32)CC1.O=C(O)/C=C/C(=O)O [KETOTIFEN FUMARATE]"
value_observed = 0

[[record]]
compound = "COc1cc(N2CCN(C)CC2)ccc1Nc1ncc2c(n1)N(C)c1ccccc1C(=O)N2C"
value_observed = 7

[[record]]
compound = "CCN1CCN(c2ccc(Nc3cc(N(C)C(=O)Nc4c(Cl)c(OC)cc(OC)c4Cl)ncn3)cc2)CC1"
value_observed = 5

[[record]]
compound = "CCc1cccc(CC)c1NC(=O)c1nn(C)c2c1CCc1cnc(Nc3ccc(C(=O)NC4CCN(C)CC4)cc3OC(F)(F)F)nc1-2"
value_observed = 4

